Species on record: Rattus norvegicus
test summary: Open TG-GATES - Regimen: Single
Type: toxicity, organism-based, Sprague-Dawley
Design: regimen Single, gender Male, age 6 weeks
assay conditions: in vivo, po, 100 mg/kg, 3 h, tissue Blood, route gavage, dose level Low
# Lookup of reported Bas keyed by entry
quantity kind: Bas (%)

C[C@H](CS)C(=O)N1CCC[C@H]1C(=O)O = 0
O=C(O)c1cn(C2CC2)c2cc(N3CCNCC3)c(F)cc2c1=O = 0
O=C(O)c1cc(/N=N/c2ccc(S(=O)(=O)Nc3ccccn3)cc2)ccc1O = 0
Clc1ccccc1CN1CCc2sccc2C1 = 0.2
CCc1cc(C(N)=S)ccn1 [ETHIONAMIDE] = 0

----------
Species on record: Rattus norvegicus
test summary: Open TG-GATES - Regimen: Single
Format: toxicity, organism-based, Sprague-Dawley
Parameters: regimen Single, gender Male, age 6 weeks
assay conditions: in vivo, po, 100 mg/kg, 6 h, tissue Blood, route gavage, dose level Low
# Lookup of reported MCH keyed by entry
quantity kind: MCH (pg)

Clc1ccccc1CN1CCc2sccc2C1 = 20.8
C[C@H](CS)C(=O)N1CCC[C@H]1C(=O)O = 21.8
CCc1cc(C(N)=S)ccn1 [ETHIONAMIDE] = 22.1
O=C(O)c1cn(C2CC2)c2cc(N3CCNCC3)c(F)cc2c1=O = 21.4
O=C(O)c1cc(/N=N/c2ccc(S(=O)(=O)Nc3ccccn3)cc2)ccc1O = 21.9

----------
# Lookup of reported TBIL keyed by entry
Species on record: Rattus norvegicus
test summary: Open TG-GATES - Regimen: Single
Assay type: toxicity, organism-based, Sprague-Dawley
Design: regimen Single, gender Male, age 6 weeks
assay conditions: in vivo, po, 300 mg/kg, 24 h, tissue Plasma, route gavage, dose level Middle
quantity kind: TBIL (mg/dL)

CCc1cc(C(N)=S)ccn1 [ETHIONAMIDE] = 0.4
O=C(O)c1cc(/N=N/c2ccc(S(=O)(=O)Nc3ccccn3)cc2)ccc1O [SULFASALAZINE] = 0.1
Clc1ccccc1CN1CCc2sccc2C1 [TICLOPIDINE] = 0.1
O=C(O)c1cn(C2CC2)c2cc(N3CCNCC3)c(F)cc2c1=O [CIPROFLOXACIN] = 0.3
C[C@H](CS)C(=O)N1CCC[C@H]1C(=O)O [CAPTOPRIL] = 0.3

----------
Species on record: Rattus norvegicus
test summary: Open TG-GATES - Regimen: Daily Repeat
Assay type: toxicity, organism-based, Sprague-Dawley
Parameters: regimen Daily Repeat, gender Male, age 6 weeks
assay conditions: in vivo, po, 0 mg/kg, 72 h, tissue Blood, route gavage, dose level Control, time 3 day
# Lookup of reported Plat keyed by entry
quantity kind: Plat (x10_4/uL)

CSc1ccc2c(c1)N(CCC1CCCCN1C)c1ccccc1S2 (stereo unspecified) = 107.7
COc1ccc2c(c1)c(CC(=O)O)c(C)n2C(=O)c1ccc(Cl)cc1 = 122
O=C(O)c1cn(C2CC2)c2cc(N3CCNCC3)c(F)cc2c1=O = 99.9
CC(=O)Oc1ccccc1C(=O)O = 121.3
C[C@H](CS)C(=O)N1CCC[C@H]1C(=O)O = 117.3
Cn1c(=O)c2[nH]cnc2n(C)c1=O.O = 114.7

----------
Organism: Rattus norvegicus
test summary: Open TG-GATES - Regimen: Single
Format: toxicity, organism-based, Sprague-Dawley
Set-up: regimen Single, gender Male, age 6 weeks
assay conditions: in vivo, po, 100 mg/kg, 6 h, tissue Blood, route gavage, dose level Low
# Lookup of reported Bas keyed by entry
quantity kind: Bas (%)

O=C(O)c1cn(C2CC2)c2cc(N3CCNCC3)c(F)cc2c1=O = 0
C[C@H](CS)C(=O)N1CCC[C@H]1C(=O)O = 0
O=C(O)c1cc(/N=N/c2ccc(S(=O)(=O)Nc3ccccn3)cc2)ccc1O = 0
CCc1cc(C(N)=S)ccn1 [ETHIONAMIDE] = 0
Clc1ccccc1CN1CCc2sccc2C1 = 0.4
